# Tested on: Acinetobacter baumannii ATCC17961
# assay_text: Antimicrobial susceptibility testing: 90% growth inhibitory concentration (IC90) determination, Iso-Sensitest broth
# Type: cell-based
# setup_conditions: Acinetobacter baumannii, ATCC17961, 16 h, 90% growth inhibitory concentration, Acinetobacter baumannii ATCC17961, Iso-Sensitest broth, OD 600 nm over 16 h; read-out: ATCC17961 IC90
# Procedure: Antimicrobial Susceptibility Testing: 90% Growth Inhibitory Concentration (IC90) Determination The in vitro antimicrobial activity of the compounds was determined according to the following procedure: The assay used a 10-points Iso-Sensitest broth medium to measure quantitatively the in vitro activity of the compounds against Acinetobacter baumannii ATCC17978 and Acinetobacter baumannii ATCC17961. […]
Counter-ions that a name gives are not always drawn.

molecule	unit_of_measurement	IC90
Cc1cc(Nc2nccn3c(-c4ccc(OCC#N)c(F)c4Cl)cnc23)ccc1C(=O)N1CCN(C(=O)[C@H]2CCNC[C@H]2O)CC1 [Example 222, formate]	nM	38
COc1ccc(-c2cnc3c(Nc4ccc(C(=O)N5CCC(C(=O)NC[C@H](O)[C@@H](O)CN)CC5)c(C)c4)nccn23)c(F)c1F	nM	160
COc1ccc(-c2cnc3c(Nc4ccc(C(=O)N5CCC(C(=O)NCC(O)CN6CCOC(C)C6)CC5)c(C)c4)nccn23)c(F)c1F (stereo not shown)	nM	265
COc1ccc(-c2cnc3c(Nc4ccc(C(=O)N5CCN(C(=O)[C@@H]6CC(C)(C)CN6)CC5)c(C)c4)nccn23)c(F)c1F [Example 76, hydrochloride]	nM	91
COc1ccc(-c2cnc3c(Nc4cc(C)c(C(=O)N5CCN(C(=O)[C@@H]6C[C@@H](O)CN6)CC5)c(Cl)c4)nccn23)c(F)c1F [Example 575, dihydrochloride]	nM	583
COc1ccc(-c2cnc3c(Nc4ccc(C(=O)N5CCN(C(=O)[C@@H]6CC(F)(F)CN6)CC5)c(C)c4)nccn23)c(F)c1F [Example 573, hydrochloride]	nM	310
COc1ccc(-c2cnc3c(Nc4ccc(C(=O)N5CCN(C(=O)[C@H]6NC[C@H](O)[C@@H]6O)CC5)c(C)c4)nccn23)cc1F [Example 233, hydrochloride]	nM	190
COc1ccc(-c2cnc3c(Nc4ccc(C(=O)N5CCN(C(=O)[C@H](CCCNC(=N)N)NC(=O)[C@@H](N)CCC(=O)O)CC5)c(C)c4)nccn23)c(F)c1F [Example 555, trihydrochloride]	nM	704
Cc1cc(Nc2nccn3c(-c4ccc(OCC#N)c(F)c4Cl)cnc23)ccc1C(=O)N1CCN(C(=O)C2(O)CCNCC2)CC1 [Example 214, formate]	nM	41
COc1ccc(-c2cnc3c(Nc4ccc(C(=O)N5CCN(C(=O)[C@@H]6C[C@@](OC)(C(F)(F)F)CN6)CC5)c(C)c4)nccn23)c(F)c1F [Example 583, hydrochloride]	nM	460
COc1ccc(-c2cnc3c(Nc4ccc(C(=O)N5CCN(C(=O)N6CCN[C@@H](CO)C6)CC5)c(C)c4)nccn23)c(F)c1F [Example 172, hydrochloride]	nM	78
Cc1cc(Nc2nccn3c(-c4ccc(OCC#N)c(F)c4Cl)cnc23)ccc1C(=O)N1CCN(C(=O)C2CCNCC2)CC1 [Example 209, formate]	nM	68
Cc1cc(Nc2nccn3c(-c4ccc(OCC#N)c(F)c4F)cnc23)ccc1C(=O)N1CCN(C(=O)C2CCNCC2)CC1 [Example 197, formate]	nM	52

* * *

# System: Acinetobacter baumannii ATCC17961
# assay_text: Antimicrobial susceptibility testing: 90% growth inhibitory concentration (IC90) determination, Iso-Sensitest broth
# Assay type: cell-based
# setup_conditions: Acinetobacter baumannii, ATCC17961, 16 h, 90% growth inhibitory concentration, Acinetobacter baumannii ATCC17961, Iso-Sensitest broth, OD 600 nm over 16 h; read-out: ATCC17961 IC90
Counter-ions that a name gives are not always drawn.
Below: a set of entries, each annotated with reported log10(IC90).
result_type: log10(IC90) (log10 of the value in nM)

compound	numeric_result
COc1ccc(-c2cnc3c(Nc4ccc(C(=O)N5CCN(S(=O)(=O)[C@H]6CCNC6)CC5)c(C)c4)nccn23)c(F)c1F	2.28
Cc1cc(Nc2nccn3c(-c4ccc(OCC#N)c(F)c4F)cnc23)ccc1C(=O)N1CCC(C(=O)N2CC3(CNC3)C2)CC1	2.22
Cc1cc(Nc2nccn3c(-c4ccc(OCC#N)c(F)c4F)cnc23)ccc1C(=O)N1CCN(C(=O)[C@@H]2CCNC[C@@H]2O)CC1 [Example 188, formate]	1.71
Cc1cc(Nc2nccn3c(-c4ccc(OCC#N)c(F)c4F)cnc23)ccc1C(=O)N1CCN(C(=O)[C@@H]2CCNC[C@H]2O)CC1 [Example 190, formate]	1.66
COc1ccc(-c2cnc3c(Nc4ccc(C(=O)N5CCN(C(=O)NCCN)CC5)c(C)c4)nccn23)c(Cl)c1F [Example 153, formate]	1.70
COc1ccc(-c2cnc3c(Nc4ccc(C(=O)N5C[C@H]6CNC[C@@H](C5)O6)c(C)c4)nccn23)c(F)c1F [Example 581, dihydrochloride]	2.67

* * *

# System: Acinetobacter baumannii ATCC17961
# assay_text: Antimicrobial susceptibility testing: 90% growth inhibitory concentration (IC90) determination, Iso-Sensitest broth
# Type: cell-based
# setup_conditions: Acinetobacter baumannii, ATCC17961, 16 h, 90% growth inhibitory concentration, Acinetobacter baumannii ATCC17961, Iso-Sensitest broth, OD 600 nm over 16 h; read-out: ATCC17961 IC90
Counter-ions that a name gives are not always drawn.
Mark each entry fulfilled if its IC90 sits below 60 nM, and not fulfilled for all others.

molecule	cat
COc1ccc(-c2cnc3c(Nc4ccc(C(=O)N5CCC(C(=O)NCC(O)CN6CCNCC6)CC5)c(C)c4)nccn23)c(F)c1F (stereo not drawn) [Example 90, hydrochloride]	not fulfilled
Cc1cc(Nc2nccn3c(-c4ccc(OCC#N)c(F)c4Cl)cnc23)ccc1C(=O)N1CCN(C(=O)[C@@H]2CCNC2)CC1 [Example 212, formate]	fulfilled
Cc1cc(Nc2nccn3c(-c4ccc(OCC#N)c(F)c4F)cnc23)ccc1C(=O)N1CCN(C(=O)CN(C)C)CC1	fulfilled
Cc1cc(Nc2nccn3c(-c4ccc(OCC#N)c(F)c4F)cnc23)ccc1C(=O)N1CCN(C(=O)[C@@H]2C[C@@H](O)CN2)CC1 [Example 200, formate]	not fulfilled
CCc1cc(Nc2nccn3c(-c4ccc(OC)c(F)c4F)cnc23)ccc1C(=O)N1CCNCC1	not fulfilled
COc1ccc(-c2cnc3c(Nc4ccc(C(=O)N5CCN(C(=O)[C@H]6NC[C@H]7C[C@H]76)CC5)c(C)c4)nccn23)c(F)c1F (racemic) [Example 82, hydrochloride]	not fulfilled
COc1ccc(-c2cnc3c(Nc4ccc(C(=O)N5CCN(C(=O)[C@@H]6C[C@@H](O)CN6)CC5)c(C)c4)nccn23)c(F)c1F [Example 184, hydrochloride]	fulfilled
COc1ccc(-c2cnc3c(Nc4ccc(C(=O)N5CCN(C(=O)[C@@H]6C[C@H](O)CN6)CC5)c(C)c4)nccn23)c(F)c1F	fulfilled
Cc1cc(Nc2nccn3c(-c4ccc(OCC#N)c(Cl)c4)cnc23)ccc1C(=O)N1CCN(C(=O)[C@@H]2C[C@@H](O)CN2)CC1	not fulfilled
COc1ccc(-c2cnc3c(Nc4ccc(C(=O)N5CCN(C(=O)[C@H]6NC[C@H](O)[C@@H]6O)CC5)c(C)c4)nccn23)c(F)c1F	not fulfilled

* * *

# Test system: Acinetobacter baumannii ATCC17961
# assay_text: Antimicrobial susceptibility testing: 90% growth inhibitory concentration (IC90) determination, Iso-Sensitest broth
# Format: cell-based
# setup_conditions: Acinetobacter baumannii, ATCC17961, 16 h, 90% growth inhibitory concentration, Acinetobacter baumannii ATCC17961, Iso-Sensitest broth, OD 600 nm over 16 h; read-out: ATCC17961 IC90
# Method: Antimicrobial Susceptibility Testing: 90% Growth Inhibitory Concentration (IC90) Determination The in vitro antimicrobial activity of the compounds was determined according to the following procedure: The assay used a 10-points Iso-Sensitest broth medium to measure quantitatively the in vitro activity of the compounds against Acinetobacter baumannii ATCC17978 and Acinetobacter baumannii ATCC17961. […]
Where a name gives a salt, the structure may show the parent alone.
result_type: IC90 (nM)

molecule	numeric_result
Cc1cc(Nc2nccn3c(-c4ccc(OCC#N)c(F)c4F)cnc23)ccc1C(=O)N1CCN(C(=O)[C@H]2CCNC[C@@H]2O)CC1 [Example 191, formate]	73
COc1ccc(-c2cnc3c(Nc4ccc(C(=O)NC5CCC(NC(=O)[C@H]6C[C@H](O)CN6)C5)c(C)c4)nccn23)c(F)c1F (mixture of isomers)	81
CCc1cc(Nc2nccn3c(-c4ccc(OC(F)F)c(F)c4F)cnc23)ccc1C(=O)N1CCC(C(=O)N2C[C@H]3C[C@@H](C2)N3)CC1 [Example 589, formate]	59
Cc1cc(Nc2nccn3c(-c4ccc(OC(F)F)cc4)cnc23)ccc1C(=O)N1CCN(C(=O)N[C@@H]2CNC[C@H]2O)CC1 (racemic) [Example 170, hydrochloride]	35
COc1ccc(-c2cnc3c(Nc4ccc(C(=O)N5CCC(C(=O)NC[C@H]6O[C@H](O)[C@H](N)[C@@H](O)[C@@H]6O)CC5)c(C)c4)nccn23)c(F)c1F	164
COc1ccc(-c2cnc3c(Nc4ccc(C(=O)N5CCN(C(=O)[C@H]6C[C@H](O)CN6)CC5)c(C)c4)nccn23)c(F)c1F (racemic)	104
